Experiment: Inhibition of calf brain tubulin polymerization after 20 mins by spectrophotometric analysis
Design: species or system Bos taurus
value type: IC50

Answered cases to consult:
smiles text	IC50
COc1cc(C(=O)c2ccc(N(C)C)cc2)cc(OC)c1OC	> 20 µM
CCn1c2ccccc2c2cc(/C(=N/O)c3cc(OC)c(OC)c(OC)c3)ccc21	1.6 µM
C=C(c1cc(OC)c(OC)c(OC)c1)c1ccc(N(C)C)c(C2OCCO2)c1	> 5 µM

# input Look up IC50: "C=C(c1ccc(N(C)C)c(C=O)c1)c1cc(OC)c(OC)c(OC)c1"
# output > 10 µM

###

Assay: Inhibition of calf brain tubulin polymerization after 20 mins by spectrophotometric analysis
Set-up: species or system Bos taurus
Entries and their IC50

Answered cases to consult:
smiles text	IC50
C=C(c1ccc(N(C)C)c(C#N)c1)c1cc(OC)c(OC)c(OC)c1	> 5 µM
COc1cc(/C(=N/O)c2ccc(N(C)C)cc2)cc(OC)c1OC	> 10 µM

# input Look up IC50: "C=C(c1ccc(N(C)C)c(N)c1)c1cc(OC)c(OC)c(OC)c1"
# output > 5 µM

###

Entries and their pIC50
Tested on: HT-29
Test: Cytotoxicity against human HT-29 cells assessed as inhibition of cell proliferation after 72 hrs by XTT assay
Format: functional, cell-based
Details: HT-29, 72 h
pIC50: −log10 of the molar value.

smiles text	pIC50
COc1cc(C(=O)c2ccc(N3CCCC3)cc2)cc(OC)c1OC	< 6.00
C=C(c1cc(OC)c(OC)c(OC)c1)c1ccc(N(C)C)c(C2OCCO2)c1	< 6.00

# input Look up pIC50: "COc1cc(C(=O)c2ccc(N(C)C)c([N+](=O)[O-])c2)cc(OC)c1OC"
# output < 6.00

# input Look up pIC50: "C=C(c1ccc(N(C)C)c(C=O)c1)c1cc(OC)c(OC)c(OC)c1"
# output < 6.00

# input Look up pIC50: "COc1cc(C(=O)c2ccc(N(C)C)c(C=O)c2)cc(OC)c1OC"
# output < 6.00

# input Look up pIC50: "COc1cc(C(=O)c2ccc(N(C)C)cc2)cc(OC)c1OC"
# output 6.40

# input Look up pIC50: "CCn1c2ccccc2c2cc(C(=O)c3cc(OC)c(OC)c(OC)c3)ccc21"
# output 6.40

# input Look up pIC50: "C=C(c1ccc(N(C)C)c(C=NO)c1)c1cc(OC)c(OC)c(OC)c1"
# output < 6.00

# input Look up pIC50: "C=C(c1cc(OC)c(OC)c(OC)c1)c1ccc2c(c1)c1ccccc1n2CC"
# output 6.70

# input Look up pIC50: "COc1cc(C(=O)c2ccc(N(C)C)c(N)c2)cc(OC)c1OC"
# output 6.05

# input Look up pIC50: "COc1cc(/C(=N/O)c2ccc(N3CCCC3)cc2)cc(OC)c1OC"
# output < 6.00

###

Test: Aqueous solubility of the compound in phosphate buffer at pH 7 after 48 hrs by spectrophotometric analysis
Assay type: physicochemical
value type: solubility at 48 h (µg/mL)

smiles text	unit string	solubility at 48 h
C=C(c1ccc(N(C)C)c(C=O)c1)c1cc(OC)c(OC)c(OC)c1	µg/mL	107

P = C=C(c1ccc(N(C)C)c(C#N)c1)c1cc(OC)c(OC)c(OC)c1
Q = COc1cc(C(=O)c2ccc(N(C)C)c(C=O)c2)cc(OC)c1OC
# input Record comparison, field solubility at 48 h: mark the lower of P and Q . To answer, give the label that identifies your chosen option.
# output Q
(Q: 8.9 µg/mL, P: 84 µg/mL)
